- Tested on: A549-ACE2 infected with SARS-CoV-2
- Method Summary: SARS-CoV-2 infection rate relative to DMSO; higher = more infection
- Details: 3 µM; 24 h
Decision: SARS-CoV-2 infection rate >= 30% yields 1, all other cases yield -1.

• O=c1[nH]c2ccccc2n1C1CCN(CCCC(c2ccc(F)cc2)c2ccc(F)cc2)CC1 [pimozide] = 1
• CCC(CC)COC(=O)[C@H](C)N[P@](=O)(OC[C@H]1O[C@@](C#N)(c2ccc3c(N)ncnn23)[C@H](O)[C@@H]1O)Oc1ccccc1 = -1
• CCN1CCC(n2cc(CNc3cc(Cl)c4ncc(C#N)c(Nc5ccc(F)c(Cl)c5)c4c3)nn2)CC1 = 1
• C=CCN(C)CCCCCCOc1ccc(C(=O)c2ccc(Br)cc2)c(F)c1 = 1
• COc1ccc(NC(=O)c2ccc(-c3ccc(-c4noc(C)n4)cc3C)cc2)cc1N1CCN(C)CC1 = 1
